# TARGET ENTITY: Gamma-aminobutyric acid receptor subunit alpha-6/beta-3/gamma-2 (Rattus norvegicus) (UniProt P18508+P30191+P63079)
# ASSAY DETAILS: Positive allosteric modulation of rat recombinant GABAA alpha6beta3alpha6-gamma2beta3 receptor expressed in Xenopus laevis oocytes assessed as maximal efficacy at -80 mV holding potential at 3 uM in presence of GABA EC1 to 1.5 by two-electrode voltage-clamp assay
# Format: cell-based
# MEASUREMENT CONDITIONS: Oocyte, filed as positive allosteric modulator
Measured Efficacy, listed per entry.
Answer format: numeric, % implied, no suffix.

CHEM SMILES: COc1ccc(-n2nc3c4ccc(C(C)=O)cc4[nH]cc-3c2=O)cc1
Efficacy, %: 127
--
CHEM SMILES: COc1ccc(-n2nc3c4ccc(Br)cc4[nH]cc-3c2=O)cc1
Efficacy, %: 320
--
CHEM SMILES: C#Cc1ccc2c3nn(-c4ccc(OC)cc4)c(=O)c-3c[nH]c2c1
Efficacy, %: 325

--- query ---
IN: Given the molecule COc1ccc(-n2nc3c4ccc(Cl)cc4[nH]cc-3c2=O)cc1 , write its reported Efficacy.
OUT: 387
